These entries and their values trace back to the supplement of paper PMC12042874.

Assay: amyloid nucleation score (Sup35N fusion, yeast selection) (log enrichment); library NNK1; higher = more nucleation; inactive = no reads after selection;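 also: zero at mode of non-aggregating sequences after 7 days selection at 30°C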
Catalogue of amyloid nucleation score values
Kindly provide the number alone.

Example entries and their recorded answers appear below.
{"Substance": "ELLYGWGIP", "amyloid nucleation score": -0.723}
{"Substance": "MEFNMWYLFGDLLVTLDWPK", "amyloid nucleation score": 0.044}
{"Substance": "GGFWPICYWNLRASEPLQDS", "amyloid nucleation score": 0.173}
{"Substance": "SRTYPVDMFPMSLKLSINVL", "amyloid nucleation score": -0.125}
{"Substance": "NSFWTLVFSGHPACWLTVFI", "amyloid nucleation score": -0.75}
{"Substance": "IINRNYI", "amyloid nucleation score": 1.1}
{"Substance": "VTLPSAMQGSHFTWGPNVAF", "amyloid nucleation score": -0.422}
{"Substance": "SLKCSNGR", "amyloid nucleation score": 0.49}

Incoming: Name the recorded amyloid nucleation score for SLRSQCGSVNLIFMVMFSVW .
Outgoing: -0.236

Incoming: Value lookup for amyloid nucleation score; key = NPCHKMFSRNPHLYMAAVKS
Outgoing: 0.335

Incoming: Tell me the measured amyloid nucleation score of WNRVWIMYGT , please.
Outgoing: 1.57

Incoming: What does the data say about its amyloid nucleation score? Entry: GWRNGKCFDGASPEWVLGHA
Outgoing: -0.39

Incoming: Report amyloid nucleation score for SWNVVFKVPLGLRVLYGYLC please.
Outgoing: -0.197

Incoming: # lookup: amyloid nucleation score of NSNCELGKVHFAV
Outgoing: 0.501

----------
Assay: amyloid nucleation score (Sup35N fusion, yeast selection) (log enrichment); library NNK3; higher = more nucleation; inactive = no reads after selection
Endpoint name: amyloid nucleation score

Worked examples, 5 sequences total:
{"Sequence input": "NHFAAMLSCFSSRVVVTYQA", "amyloid nucleation score": "inactive"}
{"Sequence input": "CSGYFDCIDTLKCNSS", "amyloid nucleation score": "inactive"}
{"Sequence input": "EPGDRQARKSFRLSFWAQEV", "amyloid nucleation score": 0.422}
{"Sequence input": "WCHLFLFMCTSSLFSGWDDG", "amyloid nucleation score": "inactive"}
{"Sequence input": "QWKVLLRACHRLEDALCCIS", "amyloid nucleation score": "inactive"}

Incoming: What measured amyloid nucleation score goes with LWVRIKARTFNFS ?
Outgoing: 0.228

Incoming: Entry RELVNSNALGNFLWETVCFS has what amyloid nucleation score?
Outgoing: inactive

Incoming: Data request, read-out amyloid nucleation score, for GMALPRVIVFIGNRITTNLG
Outgoing: 2.31

Incoming: Query: amyloid nucleation score; subject: TLYFFKYFWMFVVMCKINKA
Outgoing: inactive

----------
Experiment: amyloid nucleation score (Sup35N fusion, yeast selection) (log enrichment); library NNK2; higher = more nucleation; inactive = no reads after selection
# amyloid nucleation score values compiled below
Form rule: numeric answer, no unit written next to it.

Example entries begin here.
{"Substance": "LTNKLELNLGASIADSVGNN", "Endpoint name": "amyloid nucleation score", "Numeric readout": -0.89}
{"Substance": "FVRLTRIVESGYYDIFGKIK", "Endpoint name": "amyloid nucleation score", "Numeric readout": -0.429}
{"Substance": "GWWVCWVL", "Endpoint name": "amyloid nucleation score", "Numeric readout": -1.07}

Incoming: Need amyloid nucleation score of NADHDLSEILVNRRTGWFHF , thanks.
Outgoing: 5.84

Incoming: Any idea what amyloid nucleation score was measured for AISILNCSMMLRIWPSTAAL ?
Outgoing: 0.059

Incoming: Any idea what amyloid nucleation score was measured for RSLIFLNWGYSV ?
Outgoing: 3.59

Incoming: Item under review: LYENWPCFT . Reported amyloid nucleation score?
Outgoing: -0.199

Incoming: Name the recorded amyloid nucleation score for QFDTPNTT .
Outgoing: -0.169

Incoming: Recorded amyloid nucleation score for DMFIVYSSLYRSFLIFESLH , please?
Outgoing: -2.42

Incoming: State the recorded amyloid nucleation score for this entry: SSNALKGDGSFGQNEVESAK
Outgoing: -0.043
